System: MS2 coat protein
assay summary: apparent KD of MS2 coat protein; designed switch direction (-1 OFF switch, 1 ON switch): -1; higher = weaker reporter binding
assay setup: input ligand: FMN 200 uM
Mark condition met for reported apparent KD of MS2 coat protein of 70 nM or greater; mark condition not met for anything smaller.

Examples from the recorded data:
GUAGAGUCAGGAUAUACGAGAUCGAAAGAUCAGUGAUCCUUACAUGAGGAUCACCCAUGUAGAAGGGACUCUAC [Omei mod 8 to Eli's favorate candidate (ch.parushev)] (Eterna round: R97, puzzle: Exclusion 2) ... condition not met
AUAAUGUGAGGAUAUCACGGCCCGGAGAAUCCGGUAAACGAUGAGAAGGCACAUGAGGAUCACCCAUGUUCCUG [EX4 A.4] (Eterna round: R97, puzzle: Exclusion 4) ... condition not met
GGUCGGCGAGGAUAUACAUGAGGAUCACCCAUGUGAUAGAUUGCACGCGUACGUGUAUGUAGAAGGCGCUGACG [JL-ex3-3.30 salish99 mod] (Eterna round: R96, puzzle: Exclusion 3) ... condition met

Has CUGUUUUUCGCAGGAUAUGCUUCUCCUUUAUUAGCAGAAGGGCGUUAAACAUGAGGAUCACCCAUGUAUGGUAAUGAUAUUUUC [JR_ExcNG1_Sub060] (Eterna round: R96, puzzle: Exclusion NG 1) a recorded apparent KD of MS2 coat protein greater than or equal to 70 nM?
condition met

Has CAUUCACAUGAGGAUCACCCAUGUCAGGAUAUAGUCGAUAUAUGGAAACAUAUAUCGACUAGAAGGGACUAGCG [Jieuxxlusion 13 - Jieux - Exclusion 1] (Eterna round: R97, puzzle: Exclusion 1) a recorded apparent KD of MS2 coat protein greater than or equal to 70 nM?
condition met

Has AUUUAACAUGAGGAUCACCCAUGUGAGGAUAUGCGAGUAUAGACUUCGGUCUGAUAGAGCAGAAGGCGCAGAUA [EX1 #8] (Eterna round: R97, puzzle: Exclusion 1) a recorded apparent KD of MS2 coat protein greater than or equal to 70 nM?
condition not met

Has UGAGUGCUGCGAGGAUAUACAUGAGGAUCACCCAUGUGGUCCUGUGAGGCAAAGCCUCACAGGAUGUAGAAGGCGCAGUACUCU [Mat - Exclusion NG 2 - Mod of JL - D45] (Eterna round: R96, puzzle: Exclusion NG 2) a recorded apparent KD of MS2 coat protein greater than or equal to 70 nM?
condition met

Has GAUUCGCGAGGAUAUACAGUCGAGUCCAUUACGUGUCUGGGACUUGAGGAUCACCCAAGUAGAAGGCGUCUCAU [salish99_ex2_r4_638] (Eterna round: R97, puzzle: Exclusion 2) a recorded apparent KD of MS2 coat protein greater than or equal to 70 nM?
condition not met

Has CGGGCCGGCCUUCCGGCCGGCCCGACAUGAGGAUCACCCAUGUAGGAUAUCCCGGCUGCCGGCCGGGAGAAGGGCGUGCGCUUU [-47.6, -45.1 kcal, 14% A] (Eterna round: R96, puzzle: Exclusion NG 3) a recorded apparent KD of MS2 coat protein greater than or equal to 70 nM?
condition not met
